Values compiled from patent US20100056524A1.

Molecular target: TBK1 (Homo sapiens, UniProt Q9UHD2)
Construct: All protein kinases were of human origin and encoded full length proteins, unless indicated otherwise; His6; made in house; host or cells: insect Sf21 cells
Sequence (Q9UHD2 whole entry): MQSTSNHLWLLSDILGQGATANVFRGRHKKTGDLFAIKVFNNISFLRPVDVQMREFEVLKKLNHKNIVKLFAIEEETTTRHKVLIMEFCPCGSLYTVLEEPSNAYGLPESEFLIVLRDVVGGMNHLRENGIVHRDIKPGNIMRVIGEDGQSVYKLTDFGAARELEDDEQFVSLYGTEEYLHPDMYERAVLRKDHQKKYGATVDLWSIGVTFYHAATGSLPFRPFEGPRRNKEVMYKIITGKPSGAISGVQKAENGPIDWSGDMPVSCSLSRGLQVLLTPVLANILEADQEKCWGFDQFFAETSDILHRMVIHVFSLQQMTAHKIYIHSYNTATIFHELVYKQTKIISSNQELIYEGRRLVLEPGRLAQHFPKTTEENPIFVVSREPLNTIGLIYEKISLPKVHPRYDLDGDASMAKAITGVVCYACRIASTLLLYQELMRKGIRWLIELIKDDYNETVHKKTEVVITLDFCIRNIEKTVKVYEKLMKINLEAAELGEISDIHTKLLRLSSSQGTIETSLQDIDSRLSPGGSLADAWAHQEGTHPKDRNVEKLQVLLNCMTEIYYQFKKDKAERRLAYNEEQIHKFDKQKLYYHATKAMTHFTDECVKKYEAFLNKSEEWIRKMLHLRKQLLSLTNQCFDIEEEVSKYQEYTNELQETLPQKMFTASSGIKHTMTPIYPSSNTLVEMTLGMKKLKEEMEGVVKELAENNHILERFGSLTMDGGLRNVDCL
Experiment: TBK1 protein kinase assay ([γ-33P]ATP, P81 filterplates)
Assay type: biochemical
Details: 50 μM ATP; read-out: Potency (TBK1 IC50 potency score)
Counter-ions that a name gives are not always drawn.
Quick reference: IC50 of the listed items.

Below: 2 molecules and their reported IC50.
{"columns": ["MOLECULE", "MEAS_VALUE"],
 "data": [
  ["Cn1ncc2ccc(Nc3ncc(C4CC4)c(NCCCNC(=O)C4CCC4)n3)cc21 [Example 139]", "< 100 nM"],
  ["O=C(NCCCNc1nc(Nc2ccc(N3CCOCC3)cc2)ncc1C1CC1)C1CCC1 [Example 166]", "< 100 nM"]
]}

Supply IC50 value. Item: O=C(NCCCNc1nc(Nc2ccc3cn[nH]c3c2)ncc1C1CC1)C1CCC1 [Example 129, Hydrochloride]
< 100 nM

Supply IC50 value. Item: O=C(NCCCNc1nc(Nc2cccc(O)c2)ncc1C1CC1)c1cccs1 [Example 29, Trifluoroacetic acid salt]
1000 to 10000 nM

Supply IC50 value. Item: CC(=O)Nc1cccc(Nc2ncc(C3CC3)c(NCCCNC(=O)C3CCC3)n2)c1 [Example 68]
< 100 nM

Supply IC50 value. Item: O=C(NCCCNc1nc(Nc2cccc(Cl)c2)ncc1C1CC1)c1cccs1 [Example 55]
100 to 1000 nM

----------
Molecular target: TBK1 (Homo sapiens, UniProt Q9UHD2)
Construct: All protein kinases were of human origin and encoded full length proteins, unless indicated otherwise; His6; made in house; host or cells: insect Sf21 cells
Assay: TBK1 protein kinase assay ([γ-33P]ATP, P81 filterplates)
Assay type: biochemical
Settings: 50 μM ATP; read-out: Potency (TBK1 IC50 potency score)
Where a name gives a salt, the structure may show the parent alone.
READOUT_KIND: IC50

{"columns": ["COMPOUND", "ASSAYED_SYSTEM", "IC50"],
 "data": [
  ["O=C(NCCCNc1nc(Nc2cccc(F)c2)ncc1C1CC1)C1CCCC1", "TBK1 (Homo sapiens, UniProt Q9UHD2)", "< 100 nM"],
  ["CC(=O)NCCCNc1nc(Nc2cccc(F)c2)ncc1C1CC1 [Example 1, trifluoroacetic acid salt]", "TBK1 (Homo sapiens, UniProt Q9UHD2)", "100 to 1000 nM"],
  ["O=C(NCCCNc1nc(Nc2ccc3ncnn3c2)ncc1C1CC1)C1CCC1", "TBK1 (Homo sapiens, UniProt Q9UHD2)", "< 100 nM"],
  ["O=C(NCCCNc1nc(Nc2cccnc2)ncc1C1CC1)c1cccs1", "TBK1 (Homo sapiens, UniProt Q9UHD2)", "100 to 1000 nM"]
]}

Supply IC50 value. Item: O=C(NCCCNc1nc(Nc2cccc(C(=O)N3CCNCC3)c2)ncc1C1CC1)C1CCC1 [Example 142, Hydrochloride]
< 100 nM

Supply IC50 value. Item: `O=C(NCCCNc1nc(Nc2cccc(C(F)(F)F)c2)ncc1C1CC1)c1cccs1`
100 to 1000 nM

Supply IC50 value. Item: `CN1CCN(C(=O)c2cccc(Nc3ncc(C4CC4)c(NCCCNC(=O)c4cccs4)n3)c2)CC1`
100 to 1000 nM

Supply IC50 value. Item: O=C(NCCCNc1nc(Nc2cccc(N3CCOCC3)c2)ncc1C1CC1)c1cccs1 [Example 46, trifluoroacetic acid salt]
100 to 1000 nM

Supply IC50 value. Item: `CN(C)[C@H]1CCN(C(=O)c2cccc(Nc3ncc(C4CC4)c(NCCCNC(=O)C4CCC4)n3)c2)C1`
< 100 nM

Supply IC50 value. Item: `Cc1nc2cc(Nc3ncc(C4CC4)c(NCCCNC(=O)c4cccs4)n3)ccc2s1`
100 to 1000 nM

Supply IC50 value. Item: `O=C(NCCCNc1nc(Nc2ccncc2)ncc1C1CC1)c1cccs1`
100 to 1000 nM

Supply IC50 value. Item: `CC(C)n1cc(Nc2ncc(C3CC3)c(NCCCNC(=O)C3CCC3)n2)cn1`
< 100 nM

Supply IC50 value. Item: `CC(C)(C)OC(=O)Nc1cccc(Nc2ncc(C3CC3)c(NCCCNC(=O)c3cccs3)n2)c1`
1000 to 10000 nM

Supply IC50 value. Item: `CN1CCN(C(=O)Cc2cccc(Nc3ncc(C4CC4)c(NCCCNC(=O)C4CCC4)n3)c2)CC1`
< 100 nM

----------
Target: TBK1 (Homo sapiens, UniProt Q9UHD2)
Construct: All protein kinases were of human origin and encoded full length proteins, unless indicated otherwise; His6; made in house; host or cells: insect Sf21 cells
Assay: TBK1 protein kinase assay ([γ-33P]ATP, P81 filterplates)
Assay type: biochemical
Conditions: 50 μM ATP; read-out: Potency (TBK1 IC50 potency score)
pIC50: −log10 of the molar value. Structures can show the parent of a compound that is named as a salt.
Quick reference: pIC50 of the listed items.

{"columns": ["COMPOUND", "pIC50"],
 "data": [
  ["O=C(NCc1ncc[nH]1)c1cccc(Nc2ncc(C3CC3)c(NCCCNC(=O)C3CCC3)n2)c1 [Example 89, Hydrochloride salt]", "> 7.00"],
  ["O=C(NCCCNc1nc(Nc2ccc3nn(CC4CC4)cc3c2)ncc1C1CC1)C1CCC1", "> 7.00"],
  ["Cn1cnc2cc(Nc3ncc(C4CC4)c(NCCCNC(=O)C4CCC4)n3)cnc21", "> 7.00"],
  ["CN1CCC(Oc2ccc(Nc3ncc(C4CC4)c(NCCCNC(=O)C4CCC4)n3)cn2)CC1", "> 7.00"],
  ["O=C(NCCCNc1nc(Nc2ccc3nccn3c2)ncc1C1CC1)C1CCC1", "> 7.00"],
  ["O=C(NCCCNc1nc(Nc2ccc(CO)nc2)ncc1C1CC1)C1CCC1", "> 7.00"],
  ["O=C(O)c1cccc(Nc2ncc(C3CC3)c(NCCCNC(=O)C3CCC3)n2)c1 [Example 71, hydrochloride salt]", "> 7.00"],
  ["CN1CCC(NC(=O)c2cccc(Nc3ncc(C4CC4)c(NCCCNC(=O)C4CCC4)n3)c2)CC1", "6.00 to 7.00"]
]}

Under TBK1 (Homo sapiens, UniProt Q9UHD2): report pIC50 of O=C(CC1CCCC1)NCCCNc1nc(Nc2cccc(F)c2)ncc1C1CC1 [Example 6, trifluoroacetic acid salt] .
> 7.00

Under TBK1 (Homo sapiens, UniProt Q9UHD2): report pIC50 of `O=C(NCCCNc1nc(Nc2cncc(F)c2)ncc1C1CC1)C1CCC1` .
> 7.00

Under TBK1 (Homo sapiens, UniProt Q9UHD2): report pIC50 of `O=C(NCCCNc1nc(Nc2ccc(NCCN3CCOCC3)nc2)ncc1C1CC1)C1CCC1` .
> 7.00

Under TBK1 (Homo sapiens, UniProt Q9UHD2): report pIC50 of `CN1CCN(CCOc2ccc(Nc3ncc(C4CC4)c(NCCCNC(=O)C4CCC4)n3)cn2)CC1` .
> 7.00

Under TBK1 (Homo sapiens, UniProt Q9UHD2): report pIC50 of `Cn1ccc(-c2cccc(Nc3ncc(C4CC4)c(NCCCNC(=O)C4CCC4)n3)c2)n1` .
> 7.00

----------
Quick reference: IC50 of the listed items.
Target: TBK1 (Homo sapiens, UniProt Q9UHD2)
Construct: All protein kinases were of human origin and encoded full length proteins, unless indicated otherwise; His6; made in house; host or cells: insect Sf21 cells
Assay: TBK1 protein kinase assay ([γ-33P]ATP, P81 filterplates)
Format: biochemical
Conditions: 50 μM ATP; read-out: Potency (TBK1 IC50 potency score)
Where a name gives a salt, the structure may show the parent alone.

Below: 10 compounds and their reported IC50.
{"columns": ["COMPOUND", "IC50"],
 "data": [
  ["O=C(NCCCNc1nc(Nc2ccc3nccnc3c2)ncc1C1CC1)C1CCC1 [Example 190]", "< 100 nM"],
  ["CN(C)[C@@H]1CCN(C(=O)c2cccc(Nc3ncc(C4CC4)c(NCCCNC(=O)C4CCC4)n3)c2)C1 [Example 126]", "< 100 nM"],
  ["CC(c1cccc(Nc2ncc(C3CC3)c(NCCCNC(=O)C3CCC3)n2)c1)N1CCOCC1 (stereo not shown) [Example 123]", "< 100 nM"],
  ["O=C(CC1CC1)NCCCNc1nc(Nc2cccc(F)c2)ncc1C1CC1 [Example 24]", "< 100 nM"],
  ["O=C(NCCCNc1nc(Nc2cccc(F)c2)ncc1C1CC1)c1nc[nH]n1 [Example 9, trifluoroacetic acid salt]", "100 to 1000 nM"],
  ["O=C(NCCCNc1nc(Nc2ccc(C(=O)N3CCOCC3)cc2)ncc1C1CC1)C1CCC1 [Example 174]", "< 100 nM"],
  ["O=C(NCCCNc1nc(Nc2cccc(CN3CCC(F)(F)CC3)c2)ncc1C1CC1)C1CCC1 [Example 135]", "< 100 nM"],
  ["O=C1CCCCN1CCCNc1nc(Nc2cccc(F)c2)ncc1C1CC1 [Example 110]", "100 to 1000 nM"],
  ["O=C(O)c1cccc(Nc2ncc(C3CC3)c(NCCCNC(=O)c3cccs3)n2)c1 [Example 34, trifluoroacetic acid salt]", "100 to 1000 nM"],
  ["CN(C)C1CCN(C(=O)Cc2cccc(Nc3ncc(C4CC4)c(NCCCNC(=O)C4CCC4)n3)c2)CC1 [Example 128]", "< 100 nM"]
]}

Supply IC50 value. Item: CN(C)C1CCN(C(=O)c2cccc(Nc3ncc(C4CC4)c(NCCCNC(=O)C4CCC4)n3)c2)CC1 [Example 81]
< 100 nM

Supply IC50 value. Item: O=C(NCCCNc1nc(Nc2cccc(C(=O)N3CCCC3)c2)ncc1C1CC1)C1CCC1 [Example 124]
< 100 nM

Supply IC50 value. Item: O=C(NCCCNc1nc(Nc2ccc(CN3CCCCC3)nc2)ncc1C1CC1)C1CCC1 [Example 156]
< 100 nM
